The measurements presented in this section are drawn from patent US20220265629A1.

Assay: Food effect cross-over study, 200 mg (25 mg tablets), healthy volunteers: plasma pharmacokinetics
Assay type: in vivo, human
Conditions: human, plasma, oral, 24 hours postdose, Fed, read-out: Plasma concentration, Mean
MEASURE: concentration at 24 h

Q) Give the value of concentration at 24 h reported for the following: "Cn1cc(S(=O)(=O)[C@@](C)(F)C2CCN(C(=O)Nc3ccon3)CC2)c(C(F)F)n1"
A) 1720 ng/mL

====

Assay: Food effect cross-over study, 200 mg (25 mg tablets), healthy volunteers: plasma pharmacokinetics
Assay type: in vivo, human
Conditions: human, plasma, po, single 200 mg oral dose, Fasted (N = 10), read-out: T1/2, z, Median (converted)
MEASURE: half-life (h)
Kindly answer with a numeric value in h, unit omitted.

Q) Give the value of half-life reported for the following: "Cn1cc(S(=O)(=O)[C@@](C)(F)C2CCN(C(=O)Nc3ccon3)CC2)c(C(F)F)n1"
A) 14.9
